Reported bioavailability by item:
assay: Oral pharmacokinetics in Wistar-Hanover rats; assay type: in vivo, male Wistar-Hanover rats; conditions: male, Wistar-Hanover, plasma; rat, oral; prodrug; from dose-adjusted IV and P.O. AUC ratios
experimental-endpoint: bioavailability (%)

>>> reported("CCOC(=O)OC(CC)Oc1c(C(=O)NCc2ccc(F)cc2)nc(C(C)(C)NC(=O)c2nnc(C)o2)n(C)c1=O (stereo not drawn) [Compound 15]")
7
>>> reported("Cc1nnc(C(=O)NC(C)(C)c2nc(C(=O)NCc3ccc(F)cc3)c(OC(C)OC(=O)OC(C)C)c(=O)n2C)o1 (stereo not drawn) [Compound 2]")
6.6
>>> reported("CCOC(=O)OC(C)Oc1c(C(=O)NCc2ccc(F)cc2)nc(C(C)(C)NC(=O)c2nnc(C)o2)n(C)c1=O (stereo not drawn) [Compound 1]")
3

----------
experiment: Dog pharmacokinetic study, oral dose; type: in vivo; conditions: male, plasma, fasted Beagle dogs, mean ± SE, compound measured = prodrug dosed
Reported Cmax by item:
experimental-endpoint: Cmax (nM)

>>> reported("CCOC(=O)OC(C)Oc1c(C(=O)NCc2ccc(F)cc2)nc(C(C)(C)NC(=O)c2nnc(C)o2)n(C)c1=O (centres unmarked)")
212
>>> reported("Cc1nnc(C(=O)NC(C)(C)c2nc(C(=O)NCc3ccc(F)cc3)c(OCOC(=O)C(C)(C)C)c(=O)n2C)o1")
8

----------
Reported Cmax by item:
assay: Dog pharmacokinetic study, colonic dose; type: in vivo, Male Beagle Dogs; conditions: male, dog, plasma; fasted Beagle dogs, Colonic, mean ± SE; compound measured = prodrug dosed
experimental-endpoint: Cmax

>>> reported("Cc1nnc(C(=O)NC(C)(C)c2nc(C(=O)NCc3ccc(F)cc3)c(OCOC(=O)C(C)(C)C)c(=O)n2C)o1")
"10 nM"
>>> reported("CCOC(=O)OC(C)Oc1c(C(=O)NCc2ccc(F)cc2)nc(C(C)(C)NC(=O)c2nnc(C)o2)n(C)c1=O (centres unmarked)")
"91 nM"

----------
system: cryopreserved hepatocytes from human; assay: Metabolism of compounds in hepatocyte suspensions (prodrug hydrolysis), human; format: in vitro ADME; conditions: prodrug 1 μM, human hepatocytes 1×10^6 cells/mL, 37° C.
Label condition met when Remaining at 90 min, Human >= 10%; otherwise condition not met.

>>> category("Cc1nnc(C(=O)NC(C)(C)c2nc(C(=O)NCc3ccc(F)cc3)c(OC(OC(=O)OC(C)C)C(C)C)c(=O)n2C)o1 (stereo not shown)")
"condition met"
>>> category("CC(=O)OC(Oc1c(C(=O)NCc2ccc(F)cc2)nc(C(C)(C)NC(=O)c2nnc(C)o2)n(C)c1=O)C(C)C (stereo not shown)")
"condition met"
>>> category("Cc1nnc(C(=O)NC(C)(C)c2nc(C(=O)NCc3ccc(F)cc3)c(OCOC(=O)OC(C)C)c(=O)n2C)o1")
"condition not met"
>>> category("CCOC(=O)OC(CC)Oc1c(C(=O)NCc2ccc(F)cc2)nc(C(C)(C)NC(=O)c2nnc(C)o2)n(C)c1=O (stereo not shown)")
"condition met"
>>> category("Cc1nnc(C(=O)NC(C)(C)c2nc(C(=O)NCc3ccc(F)cc3)c(OCOC(=O)C(C)(C)C)c(=O)n2C)o1")
"condition not met"
>>> category("CCOC(=O)OC(C)Oc1c(C(=O)NCc2ccc(F)cc2)nc(C(C)(C)NC(=O)c2nnc(C)o2)n(C)c1=O (stereo not shown)")
"condition met"
>>> category("CCCCOC(=O)OC(C)Oc1c(C(=O)NCc2ccc(F)cc2)nc(C(C)(C)NC(=O)c2nnc(C)o2)n(C)c1=O (stereo not shown)")
"condition not met"

----------
test: Oral pharmacokinetics in Wistar-Hanover rats; format: in vivo, male Wistar-Hanover rats; details: male, Wistar-Hanover; rat, oral gavage, plasma; prodrug measured
Reported Tmax by item:
experimental-endpoint: Tmax (min)

>>> reported("Cc1nnc(C(=O)NC(C)(C)c2nc(C(=O)NCc3ccc(F)cc3)c(OC(C)OC(=O)OC(C)C)c(=O)n2C)o1 (stereo not drawn)")
67.8
>>> reported("CCOC(=O)OC(CC)Oc1c(C(=O)NCc2ccc(F)cc2)nc(C(C)(C)NC(=O)c2nnc(C)o2)n(C)c1=O (stereo not drawn)")
45
>>> reported("CCOC(=O)OC(C)Oc1c(C(=O)NCc2ccc(F)cc2)nc(C(C)(C)NC(=O)c2nnc(C)o2)n(C)c1=O (stereo not drawn)")
15
